Attribution: patent US5192799A

Reported LD50 at 24 h values are given for each entry in this list.
- EXPERIMENT SUMMARY: in vivo
- CONDITION DESCRIPTION: mouse, in vivo, po, LD50 p.o., p.o., 24 hours after administration, male ddY mice

A selection of reference data follows.
compound="CC1CCN(CCCOc2ccc3c(c2)OCC3=O)CC(C)C1 (centres unmarked)" property="LD50 at 24 h" reported="> 300 mg/kg"
compound=CCCN(CCCOc1ccc2c(c1)OCC2=O)CCC(=O)OCC property="LD50 at 24 h" reported="> 300 mg/kg"
compound=CC(C)CN(CCCOc1ccc2c(c1)OCC2=O)CC(C)C property="LD50 at 24 h" reported="> 300 mg/kg"
compound=CC(C)N(CCCOc1ccc2c(c1)OCC2=O)C(C)C property="LD50 at 24 h" reported="> 300 mg/kg"
compound=CSC(=NC#N)N(C)CCCOc1ccc2c(c1)OCC2=O property="LD50 at 24 h" reported="> 300 mg/kg"

Request: What does the data say about its LD50 at 24 h? Entry: CCCCCCCN(CC)CCCOc1ccc2c(c1)OCC2=O.Cl
Response: ~300 mg/kg

Request: Reported LD50 at 24 h, compound CCCCCCC[N+](CC)(CC)CCCOc1ccc2c(c1)OCC2O (centres unmarked) : ____
Response: > 300 mg/kg

Request: So what's the measured LD50 at 24 h for this one? CCCCCCCN(CC)CC(O)COc1ccc2c(c1)OCC2=O.Cc1ccc(S(=O)(=O)O)cc1 (centres unmarked)
Response: 300 to 600 mg/kg

Request: Which LD50 at 24 h reading was recorded for the compound CCCCCCCN(CC)CCCCOc1ccc2c(c1)OCC2=O ?
Response: 300 to 600 mg/kg

Request: Recorded LD50 at 24 h of CCCCCCC[N+](CC)(CC)CCCOc1cccc2c1OCC2=O , please.
Response: > 300 mg/kg

Request: Fill in: LD50 at 24 h of CS(=O)(=O)Nc1ccc(C2CCN(CCCOc3ccc4c(c3)OCC4=O)CC2)cc1 is ___
Response: > 300 mg/kg

----------
- Test system: right ventricle (effective refractory period)
- EXPERIMENT SUMMARY: Activity on ERP of the right ventricle
- Format: in vivo, adult mongrel dog
- CONDITION DESCRIPTION: Canis lupus familiaris, iv; 0.1 mg/kg i.v.; ERP before drug = 100%; read-out: ERP % (ERP prolonging activity)
Readings of change in vivo at 0.1 mg/kg for the listed compounds
Enter your answer as a number in %; do not include the unit.

Solved cases below.
compound=CCC1CCN(CCCOc2ccc3c(c2)OCC3=O)CC1 output_unit=% reported=0
compound="CCCCCCC[N+](CC)(CC)CCCCc1ccc(Cl)cc1 [Clofilium, reference compound]" output_unit=% reported=7
compound=CC(C)N(CCCOc1ccc2c(c1)OCC2=O)C(C)C output_unit=% reported=3
compound=CS(=O)(=O)NC1CCN(CCCOc2ccc3c(c2)OCC3=O)CC1 output_unit=% reported=8.3
compound=CCOC(=O)C1CCN(CCCOc2ccc3c(c2)OCC3=O)CC1 output_unit=% reported=0
compound=CC(C)CN(CCCOc1ccc2c(c1)OCC2=O)CC(C)C output_unit=% reported=2.4

Request: Short answer please: change in vivo at 0.1 mg/kg, right ventricle (effective refractory period), entry CCCCCCCN(CC)CCOc1ccc2c(c1)OCC2=O
Response: 5

Request: Requested read-out change in vivo at 0.1 mg/kg, target or system right ventricle (effective refractory period), entry CCCCCCCN(CC)CCCOc1ccc2c(c1)OCC2=O.Cl [Compound 102, hydrochloride]
Response: 11.7

----------
- Test system: Purkinje fiber
- EXPERIMENT SUMMARY: Effect on APD (APD75, field-stimulated right ventricular free wall)
- Format: cell-based, adult mongrel dog
- CONDITION DESCRIPTION: Canis lupus familiaris, purkinje, 20 min, dose 10 μg/ml, 20 minutes incubation, 37° C., 1 Hz; control before drug = 100%; read-out: APD75 % (percent change in APD75)
PROPERTY: activation at 10 µg/mL (%)
Numeric only. Scale: %

Solved entries:
molecule="CCCCCCC[N+](CC)(CC)CCCOc1ccccc1C=CC(C)=O [Compound 1022]" target_of_assay="Purkinje fiber" property="activation at 10 µg/mL" reported=18
molecule="CCOC(=O)C1CCN(CCCOc2ccc3c(c2)OCC3=O)CC1 [Compound 1282]" target_of_assay="Purkinje fiber" property="activation at 10 µg/mL" reported=19
molecule="CC(C)NCC(O)COc1ccc2c(c1)OCC2=O (stereo not shown) [Compound 272]" target_of_assay="Purkinje fiber" property="activation at 10 µg/mL" reported=10

Request: Fill in: activation at 10 µg/mL of CCN(CCCOc1ccc2c(c1)OCC2=O)CC1CCCO1 (stereo not shown) [Compound 184] is ___
Response: 31

----------
- TARGET OF ASSAY: dopamine 2 receptor (Rattus norvegicus)
- Construct: membrane fractions prepared from the brain a Wistarstrain male rat
- Sequence (P61169 whole entry): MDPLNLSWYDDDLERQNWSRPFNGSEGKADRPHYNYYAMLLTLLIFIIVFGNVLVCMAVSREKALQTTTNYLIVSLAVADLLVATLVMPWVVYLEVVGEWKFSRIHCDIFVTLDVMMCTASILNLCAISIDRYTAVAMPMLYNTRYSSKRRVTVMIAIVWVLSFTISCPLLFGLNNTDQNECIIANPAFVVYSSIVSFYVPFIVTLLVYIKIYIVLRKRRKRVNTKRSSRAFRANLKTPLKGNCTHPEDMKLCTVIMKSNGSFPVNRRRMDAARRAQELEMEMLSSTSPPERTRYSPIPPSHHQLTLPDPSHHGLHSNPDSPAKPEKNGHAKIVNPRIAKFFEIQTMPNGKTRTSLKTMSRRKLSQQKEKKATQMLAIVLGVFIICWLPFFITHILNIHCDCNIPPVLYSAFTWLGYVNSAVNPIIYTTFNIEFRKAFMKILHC
- EXPERIMENT SUMMARY: [3H]spiperone binding assay (affinity for dopamine 2 receptor)
- CONDITION DESCRIPTION: rat striatal membranes, 0.5 nM [3H] spiperone, 37° C., 10 minutes
# Ki per entry
Only the number, expressed in nM, is required.

compound="O=C1COc2cc(OCCCN3CCC(c4ccccc4)CC3)ccc21 [Compound 1138]" target_of_assay="dopamine 2 receptor (Rattus norvegicus)" property=Ki output_unit=nM reported=329
compound="O=C1COc2cc(OCCCN3CCC(C(=O)c4ccc(F)cc4)CC3)ccc21 [Compound 1236]" target_of_assay="dopamine 2 receptor (Rattus norvegicus)" property=Ki output_unit=nM reported=122

Request: Field request: Ki | item: O=C1COc2cc(OCCCN3CCN(c4ccccc4)CC3)ccc21 [Compound 1256]
Response: 286

----------
- System: Purkinje fiber
- EXPERIMENT SUMMARY: Effect on APD (APD75, field-stimulated right ventricular free wall)
- Format: cell-based, adult mongrel dog
- CONDITION DESCRIPTION: Canis lupus familiaris, purkinje, 20 min, dose 1 μg/ml, 20 minutes incubation, 37° C., 1 Hz; control before drug = 100%; read-out: APD75 % (percent change in APD75)
The threshold is inclusive: activation at 1 µg/mL of exactly 6% counts as satisfied; values below receive not satisfied.

Example entries begin here.
molecule="O=C1COc2cc(OCCCN3CC4CCC(CC4)C3)ccc21 [Compound 1198]" target_of_assay="Purkinje fiber" classification="not satisfied"
molecule="CCN(CCCCCCO)CCCOc1ccc2c(c1)OCC2=O [Compound 188]" target_of_assay="Purkinje fiber" classification=satisfied
molecule="CCCCCCCN(CC)CCCCOc1ccc2c(c1)OCC2=O [Compound 212]" target_of_assay="Purkinje fiber" classification="not satisfied"
molecule="CCCCCCCN(CC)CC(O)COc1ccc2c(c1)OCC2=O (stereo not drawn) [Compound 214]" target_of_assay="Purkinje fiber" classification=satisfied
molecule="CCCCCCCN(CC)CCCOc1ccc2sc(=O)oc2c1 [Compound 952]" target_of_assay="Purkinje fiber" classification="not satisfied"

Request: Dear colleague, could you confirm whether CC1CCN(CCCOc2ccc3c(c2)OCC3=O)CC1 [Compound 1122] has activation at 1 µg/mL at or above 6%?
Response: not satisfied

Request: Could you verify whether the entry CCCCCN(CC)CCCOc1ccc2c(c1)OCC2=O [Compound 108] shows activation at 1 µg/mL of no less than 6%?
Response: not satisfied

Request: Item CCCC[N+](CCCC)(CCCC)CCCOc1ccc2c(c1)OCC2=O [Compound 293] with activation at 1 µg/mL of 6% or above?
Response: not satisfied

Request: Entry CCCCCCC[N+](CC)(CC)CCCOc1ccc2c(c1OC)OCC2=O [Compound 289] : is its activation at 1 µg/mL no less than 6%?
Response: satisfied

Request: Can O=C1COc2cc(OCCCN3CCC(O)(c4ccccc4)CC3)ccc21 [Compound 1150] be said to have activation at 1 µg/mL at or above 6%?
Response: not satisfied

Request: Quick check: does CCCCCCC[N+](CC)(CC)CCCOc1ccc2c(c1)OC(C)(CC)CC2=O (stereo not drawn) [Compound 820] have activation at 1 µg/mL greater than or equal to 6%?
Response: not satisfied

Request: Is activation at 1 µg/mL at least 6%? Consider CCCCN(CCCC)CCOc1ccc2c(c1)OCC2=O [Compound 204]
Response: not satisfied

Request: Check the entry O=C1COc2cc(OCCCN[C@@H]3C[C@H]4CC[C@@H]3C4)ccc21 (relative stereo) [Compound 168] : does activation at 1 µg/mL equal or exceed 6%?
Response: not satisfied

----------
activation at 10 µg/mL listing for selected compounds.
- Tested on: Purkinje fiber
- EXPERIMENT SUMMARY: Effect on APD (APD75, field-stimulated right ventricular free wall)
- Format: cell-based, adult mongrel dog
- CONDITION DESCRIPTION: Canis lupus familiaris, purkinje, 20 min, dose 10 μg/ml, 20 minutes incubation, 37° C., 1 Hz; control before drug = 100%; read-out: APD75 % (percent change in APD75)
- Method: The pharmacological effects of the compounds of this invention represented by general formula (1) were studied. By using the heart of an adult mongrel dog, the activity of the compounds of general formula (1) were tested in vitro and in vivo. The heart of an anaethetized dog was extracted and suspended in a chamber at 37° C. in Tyrode's solution. […]
// note: answer is a bare numeric in %

See these solved cases before continuing.
compound="CCCCCCC[N+](CC)(CC)CCCOc1ccc2c(c1)OCC2O (stereo not drawn) [Compound 470]" target_of_assay="Purkinje fiber" reported=20
compound="CC1CCCN(CCCOc2ccc3c(c2)OCC3=O)C1 (stereo not drawn) [Compound 1118]" target_of_assay="Purkinje fiber" reported=24
compound="O=C1COc2cc(OCCCN3CCC(Cc4ccccc4)CC3)ccc21 [Compound 1146]" target_of_assay="Purkinje fiber" reported=34
compound="CCCCCCC[N+](CC)(CC)CCCOc1cc(OC)c2c(c1)OCC2=O [Compound 290]" target_of_assay="Purkinje fiber" reported=35
compound="CC1CCN(CCCOc2ccc3c(c2)OCC3=O)CC1 [Compound 1122]" target_of_assay="Purkinje fiber" reported=42

Request: Request - read-out activation at 10 µg/mL | tested on Purkinje fiber | compound CCCCCCC[N+](CC)(CC)CCCCc1ccc(Cl)cc1 [Clofilium, reference compound]
Response: 15
